Origin of values: patent US20080051387A1

Catalogue of inhibition at 4 µM readings, one per entry.
# TARGET UNDER TEST: chimeric human H3 receptor (Homo sapiens, UniProt Q9Y5N1)
# Construct: rat Galpha-i2 (Gnai2, rat); made in house; host or cells: Sf9 insect cells (baculovirus); P2 membranes
# Sequence (Q9Y5N1 with tags, fused parts or gaps): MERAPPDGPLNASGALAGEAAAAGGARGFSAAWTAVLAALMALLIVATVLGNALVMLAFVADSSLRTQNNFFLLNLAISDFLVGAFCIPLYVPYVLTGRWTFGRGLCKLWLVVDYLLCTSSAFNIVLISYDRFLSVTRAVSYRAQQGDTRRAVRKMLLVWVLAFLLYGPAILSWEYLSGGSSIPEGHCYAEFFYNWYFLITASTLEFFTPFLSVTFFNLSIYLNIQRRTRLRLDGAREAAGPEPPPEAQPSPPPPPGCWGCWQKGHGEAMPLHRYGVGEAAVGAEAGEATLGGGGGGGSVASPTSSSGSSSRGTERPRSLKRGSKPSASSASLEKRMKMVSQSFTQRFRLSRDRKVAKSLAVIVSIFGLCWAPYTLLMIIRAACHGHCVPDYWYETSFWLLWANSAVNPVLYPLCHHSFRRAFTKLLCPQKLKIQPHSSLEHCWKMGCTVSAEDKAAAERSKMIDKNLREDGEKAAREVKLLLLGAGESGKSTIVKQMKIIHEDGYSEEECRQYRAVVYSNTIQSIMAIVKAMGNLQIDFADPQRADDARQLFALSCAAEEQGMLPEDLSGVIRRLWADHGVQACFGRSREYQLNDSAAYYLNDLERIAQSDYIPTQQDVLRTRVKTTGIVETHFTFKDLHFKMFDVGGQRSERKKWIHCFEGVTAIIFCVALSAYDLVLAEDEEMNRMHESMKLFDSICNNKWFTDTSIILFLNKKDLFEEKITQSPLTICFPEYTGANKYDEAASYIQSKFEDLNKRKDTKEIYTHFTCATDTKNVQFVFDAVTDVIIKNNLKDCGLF
# ASSAY NOTES: Chimeric human H3 receptor screening GTP binding assay (inhibition of histamine-stimulated GTP-gamma35S binding, Example 8)
# Type: biochemical
# TEST SETTINGS: symbol ! in Ki; test compound 4 μM, 1 μM histamine; read-out: percent inhibition of agonist-induced GTP-gammaS binding to H3
PROPERTY MEASURED: inhibition at 4 µM

SMILES RECORD	PROPERTY MEASURED	RESULT
c1cncc(CN2CCc3c(ncnc3N3CCN(C4CCC4)CC3)C2)c1	inhibition at 4 µM	≥ 90%
COc1cccc(CN2CCc3ncnc(N4CCN(C5CCC5)CC4)c3CC2)c1OC	inhibition at 4 µM	≥ 90%
c1ccc(CN2CCc3c(ncnc3N3CCN(CCCN4CCCC4)CC3)C2)cc1	inhibition at 4 µM	≥ 90%
CCN1CCc2ncnc(N3CCN(C4CCC4)CC3)c2CC1	inhibition at 4 µM	≥ 90%
CCN1CCc2c(ncnc2N2CCN(C3CCC3)CC2)C1	inhibition at 4 µM	≥ 90%

###

Catalogue of inhibition at 4 µM readings, one per entry.
# TARGET UNDER TEST: chimeric human H3 receptor (Homo sapiens, UniProt Q9Y5N1)
# Construct: rat Galpha-i2 (Gnai2, rat); made in house; host or cells: Sf9 insect cells (baculovirus); P2 membranes
# ASSAY NOTES: Chimeric human H3 receptor screening GTP binding assay (inhibition of histamine-stimulated GTP-gamma35S binding, Example 8)
# Format: biochemical
# TEST SETTINGS: 1 h; assay described in Example 8; symbol "!" in column headed Ki; read-out: Ki ("!": percent inhibition of agonist-induced GTP-gammaS binding to H3)

SMILES RECORD	inhibition at 4 µM
COc1cccc(OC)c1C(=O)N1CCc2cnc(N3CCN(C4CCC4)CC3)nc2CC1	≥ 90%
CCOc1ccc(C(=O)N2CCc3cnc(N4CCN(C5CCC5)CC4)nc3CC2)cc1OCC	≥ 90%
Nc1cc(Cl)ccc1C(=O)N1CCc2cnc(N3CCN(C4CCC4)CC3)nc2CC1	≥ 90%
O=C(c1ccc(Cl)cc1Cl)N1CCc2cnc(N3CCN(C4CCC4)CC3)nc2CC1	≥ 90%
O=C(c1ccc(F)c(F)c1)N1CCc2cnc(N3CCN(C4CCC4)CC3)nc2CC1	≥ 90%
COc1ccccc1/C=C/C(=O)N1CCc2cnc(N3CCN(C4CCC4)CC3)nc2CC1	≥ 90%
Cc1oc(-c2ccc(Cl)cc2)cc1C(=O)N1CCc2cnc(N3CCN(C4CCC4)CC3)nc2CC1	≥ 90%
O=C(/C=C/c1cccc2ccccc12)N1CCc2cnc(N3CCN(C4CCC4)CC3)nc2CC1	≥ 90%
O=C(/C=C/c1ccc(-c2ccccc2)cc1)N1CCc2cnc(N3CCN(C4CCC4)CC3)nc2CC1	≥ 90%
COc1ccc(/C=C/C(=O)N2CCc3cnc(N4CCN(C5CCC5)CC4)nc3CC2)cc1	≥ 90%
Cc1cc(C(=O)N2CCc3cnc(N4CCN(C5CCC5)CC4)nc3CC2)c(C(F)(F)F)o1	≥ 90%
CCn1nc(C)c(Br)c1C(=O)N1CCc2cnc(N3CCN(C4CCC4)CC3)nc2CC1	≥ 90%
Cc1cccc(C)c1C(=O)N1CCc2cnc(N3CCN(C4CCC4)CC3)nc2CC1	≥ 90%
O=C(c1ccccc1-c1ccccc1)N1CCc2cnc(N3CCN(C4CCC4)CC3)nc2CC1	≥ 90%
COc1cc(OC)cc(C(=O)N2CCc3cnc(N4CCN(C5CCC5)CC4)nc3CC2)c1	≥ 90%
COc1ccc(C(=O)N2CCc3cnc(N4CCN(C5CCC5)CC4)nc3CC2)c(Cl)c1OC	≥ 90%
Cc1cccc(C(=O)N2CCc3cnc(N4CCN(C5CCC5)CC4)nc3CC2)c1C	≥ 90%
Cc1cnc(C(=O)N2CCc3cnc(N4CCN(C5CCC5)CC4)nc3CC2)cn1	≥ 90%
COc1ccc(C(=O)N2CCc3cnc(N4CCN(C5CCC5)CC4)nc3CC2)c(OC)c1OC	≥ 90%
COc1ccc(C(=O)N2CCc3cnc(N4CCN(C5CCC5)CC4)nc3CC2)c(OC)n1	≥ 90%
O=C(/C=C/c1cccc(F)c1F)N1CCc2cnc(N3CCN(C4CCC4)CC3)nc2CC1	≥ 90%
O=C(c1cnc2ccccc2c1)N1CCc2cnc(N3CCN(C4CCC4)CC3)nc2CC1	≥ 90%
O=C(c1sccc1Br)N1CCc2cnc(N3CCN(C4CCC4)CC3)nc2CC1	≥ 90%
Nc1ccccc1C(=O)N1CCc2cnc(N3CCN(C4CCC4)CC3)nc2CC1	≥ 90%
CCc1ccc(C(=O)N2CCc3cnc(N4CCN(C5CCC5)CC4)nc3CC2)s1	≥ 90%
O=C(c1cc(F)ccc1F)N1CCc2cnc(N3CCN(C4CCC4)CC3)nc2CC1	≥ 90%
O=C(c1ccc(Br)s1)N1CCc2cnc(N3CCN(C4CCC4)CC3)nc2CC1	≥ 90%
O=C(c1c(-c2ccccc2)nnc2ccccc12)N1CCc2cnc(N3CCN(C4CCC4)CC3)nc2CC1	≥ 90%
O=C(c1cc(C(F)(F)F)cc(C(F)(F)F)c1)N1CCc2cnc(N3CCN(C4CCC4)CC3)nc2CC1	≥ 90%
Cn1nc(C(F)(F)F)cc1-c1ccc(C(=O)N2CCc3cnc(N4CCN(C5CCC5)CC4)nc3CC2)s1	≥ 90%
O=C(c1ccccc1Cc1ccccc1)N1CCc2cnc(N3CCN(C4CCC4)CC3)nc2CC1	≥ 90%
O=C(c1sc2ccccc2c1Cl)N1CCc2cnc(N3CCN(C4CCC4)CC3)nc2CC1	≥ 90%

###

Catalogue of inhibition at 4 µM readings, one per entry.
# TARGET UNDER TEST: chimeric human H3 receptor (Homo sapiens)
# Construct: rat Galpha-i2 (Gnai2, rat); made in house; host or cells: Sf9 insect cells (baculovirus); P2 membranes
# ASSAY NOTES: Chimeric human H3 receptor screening GTP binding assay (inhibition of histamine-stimulated GTP-gamma35S binding, Example 8)
# Type: biochemical
# TEST SETTINGS: 1 h; assay described in Example 8; symbol "!" in column headed Ki; read-out: Ki ("!": percent inhibition of agonist-induced GTP-gammaS binding to H3)

SMILES RECORD	inhibition at 4 µM
COc1cc(/C=C/C(=O)N2CCc3cnc(N4CCN(C5CCC5)CC4)nc3CC2)cc(OC)c1OC	≥ 90%
Cc1ccc(C(=O)N2CCc3cnc(N4CCN(C5CCC5)CC4)nc3CC2)s1	≥ 90%
CC(C)c1ccc(/C=C/C(=O)N2CCc3cnc(N4CCN(C5CCC5)CC4)nc3CC2)cc1	≥ 90%
CSc1ncc(Cl)c(C(=O)N2CCc3cnc(N4CCN(C5CCC5)CC4)nc3CC2)n1	≥ 90%
COc1ccc(OC)c(C(=O)N2CCc3cnc(N4CCN(C5CCC5)CC4)nc3CC2)c1	≥ 90%
Cc1cc(C(=O)N2CCc3cnc(N4CCN(C5CCC5)CC4)nc3CC2)cc(Cl)n1	≥ 90%
O=C(c1cc(Cl)ccc1Cl)N1CCc2cnc(N3CCN(C4CCC4)CC3)nc2CC1	≥ 90%
